- studySystem: Alpha-2A adrenergic receptor (Homo sapiens, UniProt P08913)
- Sequence (P08913 whole entry): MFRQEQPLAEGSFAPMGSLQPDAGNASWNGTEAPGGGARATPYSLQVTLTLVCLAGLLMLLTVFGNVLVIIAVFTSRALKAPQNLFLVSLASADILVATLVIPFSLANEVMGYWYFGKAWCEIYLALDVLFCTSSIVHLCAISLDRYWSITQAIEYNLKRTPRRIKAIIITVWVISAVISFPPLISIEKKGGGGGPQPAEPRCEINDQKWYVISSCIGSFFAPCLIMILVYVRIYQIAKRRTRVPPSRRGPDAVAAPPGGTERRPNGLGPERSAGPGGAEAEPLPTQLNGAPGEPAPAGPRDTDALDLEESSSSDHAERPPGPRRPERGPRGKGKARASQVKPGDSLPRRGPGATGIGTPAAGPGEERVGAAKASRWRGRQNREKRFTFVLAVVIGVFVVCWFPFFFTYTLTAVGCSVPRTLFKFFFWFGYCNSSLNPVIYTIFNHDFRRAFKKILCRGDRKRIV
observable: Ki (µM)
The answer is to be given in µM; state only the numeric part.

Prompt: API: value(readout= Ki, system= Alpha-2A adrenergic receptor (Homo sapiens, UniProt P08913), query= O=CN1CCC(c2ccc(-c3cc(C(=O)O)cc4cc(-c5ccc(C(F)(F)F)cc5)ccc34)cc2)CC1 )
Completion: 3.97
